Target: c-Kit(V654A) (Homo sapiens, UniProt P10721, V654A)
Test: c-Kit(V654A) assay
Assay type: biochemical
Conditions: Table 1; 200 μM ATP
Flag rule - IC50 less than 0.8 nM flags Criterion met; the remaining entries get Criterion not met.

{"STRUCTURE_NOTATION": "O=C(c1ccc(-c2cc(-c3n[nH]c4cc(OCCO)c(F)cc34)on2)cc1)N1CCNCC1", "GROUP_LABEL": "Criterion not met"}
{"STRUCTURE_NOTATION": "COCCOc1cc2[nH]nc(-c3cc(-c4ccc(C(=O)N5CC[C@H]5C(C)(C)O)nc4)no3)c2cc1F", "GROUP_LABEL": "Criterion not met"}
{"STRUCTURE_NOTATION": "COCCOc1cc2[nH]nc(-c3cc(-c4ccc(-n5nc(C)ccc5=O)cc4)no3)c2cc1F", "GROUP_LABEL": "Criterion not met"}
{"STRUCTURE_NOTATION": "COCCOc1cc2[nH]nc(-c3cc(-c4ccc(C(=O)N5CCN(C6COC6)CC5)cc4)no3)c2cc1F", "GROUP_LABEL": "Criterion not met"}
{"STRUCTURE_NOTATION": "COCCOc1cc2[nH]nc(-c3cc(-c4ccc(C(=O)N5CC6(CCN(C7COC7)CC6)C5)cc4)no3)c2cc1F", "GROUP_LABEL": "Criterion met"}
